The origin of these recorded values is PubChem BioAssay AID688.

Listed next: entries and their corresponding inhibition.
Experimental Details: mutant yeast GCN4 reporter luminescence inhibitors – S. cerevisiae, eIF2B-epsilon R284H, Beta-Glo luminescence, primary screen (AID 688)
Test Context: GCN4-lacZ luminescence; active compounds read high, screened at 25 µM (by protocol)
About 250 (0.93%) of roughly 27,000 compounds were called active. What follows is part of a selection rich in actives, with near analogues and random picks from the rest.
Readout Type: inhibition (%)

1) O=C(c1cc2sccc2n1Cc1ccc(F)cc1)N1CCc2ccccc21
26.8
2) COc1ccc(C(C#N)N2N=C(C)CC2(C)C)cc1 (stereo not given)
-5.47
3) Cc1ccc(S(=O)(=O)c2c(COC(=O)c3cccc(Cl)c3)c(-c3ccccc3)nn2C)cc1
35.8
4) Cc1ccc(C2(C(F)(F)F)N=C3Sc4cc(C)cc(C)c4N3C(=O)N2)cc1 (stereo not given)
31.4
5) O=C(CSc1nnc(-c2cnccn2)n1Cc1ccco1)c1ccc(Cl)c(Cl)c1
4.49
